Data provenance is ChEMBL document CHEMBL1153000.

- Test system: K562
- ASSAY_NOTES: Cytotoxicity against human imatinib-resistant K562 leukemia cells expressing p210Bcr/Abl and MDR1 at 48 hrs by MTT assay
- Format: functional, cell-based
- MEASUREMENT_CONTEXT: K562, 48 h
MEASUREMENT_LABEL: pIC50
Lab note — pIC50 values are minus log10 of concentrations in M.

Guide cases for pIC50, answers given:
COc1cc2c3cc1Oc1c(OC)c(OC)cc4c1[C@@H](Cc1ccc(O)c(c1)Oc1ccc(cc1)C[C@@H]3N(C)CC2)N(C)CC4 | 5.05
CCOc1ccc2cc1Oc1ccc(cc1)C[C@H]1c3cc(c(OC)cc3CCN1C)Oc1c(OC)c(OC)cc3c1[C@@H](C2)N(C)CC3 | 5.50
COc1cc2c3cc1Oc1c(OC)c(OC)cc4c1[C@@H](Cc1ccc(OC(=O)c5ccc(Br)cc5)c(c1)Oc1ccc(cc1)C[C@@H]3N(C)CC2)N(C)CC4 | 6.40
COc1cc2c3cc1Oc1c(OC)c(OC)cc4c1[C@@H](Cc1ccc(OC(C)=O)c(c1)Oc1ccc(cc1)C[C@@H]3N(C)CC2)N(C)CC4 | 5.18

Simply: COc1cc2c3cc1Oc1c(OC)c(OC)cc4c1[C@@H](Cc1ccc(OC(=O)c5ccccc5Br)c(c1)Oc1ccc(cc1)C[C@@H]3N(C)CC2)N(C)CC4 , K562, pIC50 = 6.11

Item COc1cc2c3cc1Oc1c(OC)c(OC)cc4c1[C@@H](Cc1ccc(OC(=O)c5ccccc5Cl)c(c1)Oc1ccc(cc1)C[C@@H]3N(C)CC2)N(C)CC4 was tested on K562; the reported pIC50 is 6.22

The reported K562 pIC50 of COc1cc2c3cc1Oc1c(OC)c(OC)cc4c1[C@@H](Cc1ccc(OC(=O)CCl)c(c1)Oc1ccc(cc1)C[C@@H]3N(C)CC2)N(C)CC4 is 5.57

pIC50 for K562 with input COc1cc2c3cc1Oc1c(OC)c(OC)cc4c1[C@@H](Cc1ccc(OC(=O)c5ccco5)c(c1)Oc1ccc(cc1)C[C@@H]3N(C)CC2)N(C)CC4 equals 5.56

Record for COc1cc2c3cc1Oc1c(OC)c(OC)cc4c1[C@@H](Cc1ccc(OC(=O)c5ccccc5)c(c1)Oc1ccc(cc1)C[C@@H]3N(C)CC2)N(C)CC4 under target or system K562: pIC50 reported as 5.67

Observed pIC50 on K562, entry COc1cc2c3cc1Oc1c(OC)c(OC)cc4c1[C@@H](Cc1ccc(OCc5ccccc5)c(c1)Oc1ccc(cc1)C[C@@H]3N(C)CC2)N(C)CC4 , equals 6.10

Entry COc1cc2c3cc1Oc1c(OC)c(OC)cc4c1[C@@H](Cc1ccc(OC(=O)c5ccc(Cl)cc5)c(c1)Oc1ccc(cc1)C[C@@H]3N(C)CC2)N(C)CC4 , K562 data, pIC50 value: 6.01

The compound COc1cc2c3cc1Oc1c(OC)c(OC)cc4c1[C@@H](Cc1ccc(OC(=O)c5cccc(F)c5)c(c1)Oc1ccc(cc1)C[C@@H]3N(C)CC2)N(C)CC4 , when measured on K562, yielded pIC50 of 5.71

K562 data for COc1cc2c3cc1Oc1c(OC)c(OC)cc4c1[C@@H](Cc1ccc(OC(=O)c5cc6ccccc6[nH]5)c(c1)Oc1ccc(cc1)C[C@@H]3N(C)CC2)N(C)CC4 ; its pIC50: 6.34

Tested on K562, the item COc1cc2c3cc1Oc1c(OC)c(OC)cc4c1[C@@H](Cc1ccc(OCc5ccc([N+](=O)[O-])cc5)c(c1)Oc1ccc(cc1)C[C@@H]3N(C)CC2)N(C)CC4 showed pIC50 equal to 6.44
